Data origin: PubChem BioAssay AID1963421

Assignment: determine reported viability, T/C for the given molecules.
Tested on: 519858-162-T-J1-PDC complex spheroid growth, % test/control
Assay comment: Anticancer human tumor 519858-162-T-J1-PDC patient-derived colon adenocarcinoma cell line growth inhibition [Asc]
Study conditions: second compound 0.3 µM; first compound 1 µM; stronger effect = lower value
Lab book: enter the figure in %, no units written.

// recorded viability, T/C for COc1c(OCCCN2CCOCC2)ccc2c3n(c(=NC(=O)c4cnc(N)nc4)nc12)CCN3 + CCN1C(C(=O)NC23CCC(C(=O)O)(CC2)CC3)C(c2cccc(Cl)c2F)C2(C(=O)Nc3cc(Cl)ccc32)C12CCCCC2 : 47.9

// recorded viability, T/C for O=C(c1cc(Cc2n[nH]c(=O)c3ccccc23)ccc1F)N1CCN(C(=O)C2CC2)CC1 + CCN1C(C(=O)NC23CCC(C(=O)O)(CC2)CC3)C(c2cccc(Cl)c2F)C2(C(=O)Nc3cc(Cl)ccc32)C12CCCCC2 : 83.3

// recorded viability, T/C for O=C(c1ccc(F)c(F)c1Nc1ccc(I)cc1F)N1CC(O)([C@@H]2CCCCN2)C1 + CCN1C(C(=O)NC23CCC(C(=O)O)(CC2)CC3)C(c2cccc(Cl)c2F)C2(C(=O)Nc3cc(Cl)ccc32)C12CCCCC2 : 17.2

// recorded viability, T/C for C=CC(=O)N1CCN(c2nc(=O)n(-c3c(C)ccnc3C(C)C)c3nc(-c4c(O)cccc4F)c(F)cc23)C(C)C1 (stereo not given) + CCN1C(C(=O)NC23CCC(C(=O)O)(CC2)CC3)C(c2cccc(Cl)c2F)C2(C(=O)Nc3cc(Cl)ccc32)C12CCCCC2 : 90

// recorded viability, T/C for CCN1CCN(Cc2ccc(Nc3ncc(F)c(-c4cc(F)c5nc(C)n(C(C)C)c5c4)n3)nc2)CC1 + CCN1C(C(=O)NC23CCC(C(=O)O)(CC2)CC3)C(c2cccc(Cl)c2F)C2(C(=O)Nc3cc(Cl)ccc32)C12CCCCC2 : 104

====

Tested on: 519858-162-T-J1-PDC complex spheroid growth, % test/control
Assay comment: Anticancer human tumor 519858-162-T-J1-PDC cell line growth inhibition [Asc];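 also: seven day drug exposure begun three days after spheroid seeding; 100% = DMSO vehicle wells and lower values mean less viable spheroid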
Study conditions: second compound 1 µM; first compound 0.949 µM; stronger effect = lower value
Assignment: determine reported viability, T/C for the given compounds.
Lab book: enter the figure in %, no units written.

// recorded viability, T/C for Cc1nc(N2CCC3(CC2)COC(C)C3N)c(CO)nc1Sc1ccnc(N)c1Cl (stereo not drawn) + Cc1c(S(C)(=O)=O)c(-c2cc(F)cc(N3CCN(c4ccc(NS(=O)(=O)c5ccc(NC(CCN6CCC(C(=O)OCCCP(=O)(O)O)CC6)CSc6ccccc6)c(S(=O)(=O)C(F)(F)F)c5)cc4)CC3)c2)c(-c2ccc(Cl)cc2)n1C(C)C : 43.2

// recorded viability, T/C for CCN1C(C(=O)NC23CCC(C(=O)O)(CC2)CC3)C(c2cccc(Cl)c2F)C2(C(=O)Nc3cc(Cl)ccc32)C12CCCCC2 (stereo not drawn) + Cc1c(S(C)(=O)=O)c(-c2cc(F)cc(N3CCN(c4ccc(NS(=O)(=O)c5ccc(NC(CCN6CCC(C(=O)OCCCP(=O)(O)O)CC6)CSc6ccccc6)c(S(=O)(=O)C(F)(F)F)c5)cc4)CC3)c2)c(-c2ccc(Cl)cc2)n1C(C)C : 93.4

// recorded viability, T/C for CCN1C(C(=O)NC23CCC(C(=O)O)(CC2)CC3)C(c2cccc(Cl)c2F)C2(C(=O)Nc3cc(Cl)ccc32)C12CCCCC2 (stereo not drawn) + CNC(C)C(=O)NC1CN(S(=O)(=O)c2cccc(S(=O)(=O)N3CCC4CCC(C(=O)NC(c5ccccc5)c5ccccc5)N4C(=O)C(NC(=O)C(C)NC)C3)c2)CCC2CCC(C(=O)NC(c3ccccc3)c3ccccc3)N2C1=O : 82.2

====

Test system: 519858-162-T-J1-PDC complex spheroid growth, % test/control
Assay comment: Anticancer human tumor 519858-162-T-J1-PDC cell line growth inhibition [Asc];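 also: seven day drug exposure begun three days after spheroid seeding; 100% = DMSO vehicle wells and lower values mean less viable spheroid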
Study conditions: second compound 3.16 µM; first compound 10 µM; stronger effect = lower value
Observation type: viability, T/C (%)
Lab book: enter the figure in %, no units written.

Record C=CC(=O)N1CCN(c2nc(=O)n(-c3c(C)ccnc3C(C)C)c3nc(-c4c(O)cccc4F)c(F)cc23)C(C)C1 (stereo not drawn) + Cc1c(S(C)(=O)=O)c(-c2cc(F)cc(N3CCN(c4ccc(NS(=O)(=O)c5ccc(NC(CCN6CCC(C(=O)OCCCP(=O)(O)O)CC6)CSc6ccccc6)c(S(=O)(=O)C(F)(F)F)c5)cc4)CC3)c2)c(-c2ccc(Cl)cc2)n1C(C)C / 519858-162-T-J1-PDC complex spheroid growth, % test/control, viability, T/C recorded as 68.9

Record O=C(c1cc(Cc2n[nH]c(=O)c3ccccc23)ccc1F)N1CCN(C(=O)C2CC2)CC1 + Cc1c(S(C)(=O)=O)c(-c2cc(F)cc(N3CCN(c4ccc(NS(=O)(=O)c5ccc(NC(CCN6CCC(C(=O)OCCCP(=O)(O)O)CC6)CSc6ccccc6)c(S(=O)(=O)C(F)(F)F)c5)cc4)CC3)c2)c(-c2ccc(Cl)cc2)n1C(C)C / 519858-162-T-J1-PDC complex spheroid growth, % test/control, viability, T/C recorded as 86.6

Record C#Cc1c(F)ccc2cc(O)cc(-c3ncc4c(N5CC6CCC(C5)N6)nc(OCC56CCCN5CC(F)C6)nc4c3F)c12 (stereo not drawn) + Cc1c(S(C)(=O)=O)c(-c2cc(F)cc(N3CCN(c4ccc(NS(=O)(=O)c5ccc(NC(CCN6CCC(C(=O)OCCCP(=O)(O)O)CC6)CSc6ccccc6)c(S(=O)(=O)C(F)(F)F)c5)cc4)CC3)c2)c(-c2ccc(Cl)cc2)n1C(C)C / 519858-162-T-J1-PDC complex spheroid growth, % test/control, viability, T/C recorded as 67.8

====

Assignment: determine reported viability, T/C for the given compounds.
System: 519858-162-T-J1-PDC complex spheroid growth, % test/control
Assay comment: Anticancer human tumor 519858-162-T-J1-PDC cell line growth inhibition [Asc];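 also: seven day drug exposure begun three days after spheroid seeding; 100% = DMSO vehicle wells and lower values mean less viable spheroid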
Study conditions: second compound 3.16 µM; first compound 3.16 µM; stronger effect = lower value
Excerpt: Multicellular complex tumor spheroid response to apoptosis pathway targeting inhibitors Alrizomadlin, Pelcitoclax, and Dasminapant in combination with a variety of drugs and investigational agents in selected tumor cell lines […] Compounds. […] If the clinical Cmax for an agent had not been determined, the highest concentration tested was 10 microM. […]

// recorded viability, T/C for C=C(F)C(=O)N1CCN(c2nc(OCC3CCCN3C)nc3c2CCN(c2cccc4cccc(Cl)c24)C3)CC1CC#N (centres undefined) + Cc1c(S(C)(=O)=O)c(-c2cc(F)cc(N3CCN(c4ccc(NS(=O)(=O)c5ccc(NC(CCN6CCC(C(=O)OCCCP(=O)(O)O)CC6)CSc6ccccc6)c(S(=O)(=O)C(F)(F)F)c5)cc4)CC3)c2)c(-c2ccc(Cl)cc2)n1C(C)C : 47.9%

// recorded viability, T/C for O=C(c1cc(Cc2n[nH]c(=O)c3ccccc23)ccc1F)N1CCN(C(=O)C2CC2)CC1 + Cc1c(S(C)(=O)=O)c(-c2cc(F)cc(N3CCN(c4ccc(NS(=O)(=O)c5ccc(NC(CCN6CCC(C(=O)OCCCP(=O)(O)O)CC6)CSc6ccccc6)c(S(=O)(=O)C(F)(F)F)c5)cc4)CC3)c2)c(-c2ccc(Cl)cc2)n1C(C)C : 70.7%

// recorded viability, T/C for C=CC(=O)N1CCN(c2nc(=O)n(-c3c(C)ccnc3C(C)C)c3nc(-c4c(O)cccc4F)c(F)cc23)C(C)C1 (centres undefined) + Cc1c(S(C)(=O)=O)c(-c2cc(F)cc(N3CCN(c4ccc(NS(=O)(=O)c5ccc(NC(CCN6CCC(C(=O)OCCCP(=O)(O)O)CC6)CSc6ccccc6)c(S(=O)(=O)C(F)(F)F)c5)cc4)CC3)c2)c(-c2ccc(Cl)cc2)n1C(C)C : 56.3%

// recorded viability, T/C for C#Cc1c(F)ccc2cc(O)cc(-c3ncc4c(N5CC6CCC(C5)N6)nc(OCC56CCCN5CC(F)C6)nc4c3F)c12 (centres undefined) + Cc1c(S(C)(=O)=O)c(-c2cc(F)cc(N3CCN(c4ccc(NS(=O)(=O)c5ccc(NC(CCN6CCC(C(=O)OCCCP(=O)(O)O)CC6)CSc6ccccc6)c(S(=O)(=O)C(F)(F)F)c5)cc4)CC3)c2)c(-c2ccc(Cl)cc2)n1C(C)C : 95.8%

====

System: 519858-162-T-J1-PDC complex spheroid growth, % test/control
Assay comment: Anticancer human tumor 519858-162-T-J1-PDC cell line growth inhibition [Asc];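 also: seven day drug exposure begun three days after spheroid seeding; 100% = DMSO vehicle wells and lower values mean less viable spheroid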
Study conditions: second compound 0.0949 µM; first compound 0.1 µM; stronger effect = lower value
Criterion: viability, T/C strictly under 80%. Met: Yes. Not met: No.

I'd appreciate it if you could check whether COc1c(OCCCN2CCOCC2)ccc2c3n(c(=NC(=O)c4cnc(N)nc4)nc12)CCN3 + CCN1C(C(=O)NC23CCC(C(=O)O)(CC2)CC3)C(c2cccc(Cl)c2F)C2(C(=O)Nc3cc(Cl)ccc32)C12CCCCC2 has viability, T/C smaller than 80%.
Yes

I'd appreciate it if you could check whether C=C(F)C(=O)N1CCN(c2nc(OCC3CCCN3C)nc3c2CCN(c2cccc4cccc(Cl)c24)C3)CC1CC#N (stereo not given) + CCN1C(C(=O)NC23CCC(C(=O)O)(CC2)CC3)C(c2cccc(Cl)c2F)C2(C(=O)Nc3cc(Cl)ccc32)C12CCCCC2 has viability, T/C smaller than 80%.
No

I'd appreciate it if you could check whether Cn1ncnc1[C@H]1c2n[nH]c(=O)c3cc(F)cc(c23)N[C@@H]1c1ccc(F)cc1 + CCN1C(C(=O)NC23CCC(C(=O)O)(CC2)CC3)C(c2cccc(Cl)c2F)C2(C(=O)Nc3cc(Cl)ccc32)C12CCCCC2 has viability, T/C smaller than 80%.
No
